Molecular target: human recombinant PARP2 (Homo sapiens)
Construct: made in house
Sequence (Q9UGN5 whole entry): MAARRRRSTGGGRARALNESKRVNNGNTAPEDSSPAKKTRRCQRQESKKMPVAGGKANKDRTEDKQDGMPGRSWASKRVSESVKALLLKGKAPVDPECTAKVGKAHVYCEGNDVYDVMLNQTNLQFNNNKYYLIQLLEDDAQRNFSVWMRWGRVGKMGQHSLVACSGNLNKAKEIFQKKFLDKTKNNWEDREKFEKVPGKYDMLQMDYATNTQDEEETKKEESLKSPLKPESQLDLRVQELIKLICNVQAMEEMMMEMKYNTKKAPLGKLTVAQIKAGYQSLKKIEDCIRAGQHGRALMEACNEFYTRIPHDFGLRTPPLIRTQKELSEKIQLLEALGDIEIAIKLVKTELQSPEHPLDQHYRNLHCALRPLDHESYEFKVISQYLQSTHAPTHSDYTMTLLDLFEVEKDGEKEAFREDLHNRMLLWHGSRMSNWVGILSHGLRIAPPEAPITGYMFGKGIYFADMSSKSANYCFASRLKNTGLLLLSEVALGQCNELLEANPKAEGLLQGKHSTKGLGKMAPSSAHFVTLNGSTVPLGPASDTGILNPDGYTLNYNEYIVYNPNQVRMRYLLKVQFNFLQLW
Experiment: PARP2 activity by inclusion of α-[32P]-NAD+ in poly(ADP-ribose)
Type: biochemical
Conditions: in the presence of 1 mM compound; read-out: Residual activity of PARP2
Consider the cut-off 90%. If the recorded remaining activity at 1000 µM is strictly smaller, the label is criterion met; if not, the label is criterion not met.

Molecule	Class
O=C(OC[C@H]1O[C@@H](n2cnc3c(Cl)nc(F)nc32)[C@H](OC(=O)c2ccccc2)[C@@H]1OC(=O)c1ccccc1)c1ccccc1	criterion met
Nc1ncnc2c1ncn2[C@H]1C[C@H](O)[C@@H](CO)O1 [compound 4, reference compound]	criterion met
OC[C@H]1O[C@@H](n2cnc3c(NCc4cc5ccc6cccc7ccc(c4)c5c67)ncnc32)[C@H](O)[C@@H]1O	criterion not met
O=C(OC[C@H]1O[C@@H](n2cnc3c(Cl)ncnc32)[C@H](OC(=O)c2ccccc2)[C@@H]1OC(=O)c1ccccc1)c1ccccc1	criterion met

---

Molecular target: purified recombinant human Tdp1 (Homo sapiens, UniProt Q9NUW8)
Sequence (Q9NUW8 whole entry): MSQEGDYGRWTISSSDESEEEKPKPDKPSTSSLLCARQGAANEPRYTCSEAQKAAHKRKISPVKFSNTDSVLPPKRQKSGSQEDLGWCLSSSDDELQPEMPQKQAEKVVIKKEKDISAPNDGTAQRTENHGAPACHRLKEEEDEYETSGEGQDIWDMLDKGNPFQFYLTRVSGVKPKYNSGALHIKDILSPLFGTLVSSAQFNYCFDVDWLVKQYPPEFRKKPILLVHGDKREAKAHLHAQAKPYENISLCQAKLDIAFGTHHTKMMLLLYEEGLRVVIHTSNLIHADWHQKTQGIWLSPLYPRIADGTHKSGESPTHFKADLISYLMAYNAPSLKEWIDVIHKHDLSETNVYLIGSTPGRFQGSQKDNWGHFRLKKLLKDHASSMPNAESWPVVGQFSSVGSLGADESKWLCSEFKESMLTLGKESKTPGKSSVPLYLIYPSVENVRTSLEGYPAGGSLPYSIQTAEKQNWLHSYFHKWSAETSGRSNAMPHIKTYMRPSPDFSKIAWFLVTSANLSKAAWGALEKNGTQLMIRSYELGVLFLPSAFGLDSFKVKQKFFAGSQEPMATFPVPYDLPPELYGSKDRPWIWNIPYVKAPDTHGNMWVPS
Assay: Real-time detection of Tdp1 activity (removal of BHQ1 from a 5′-FAM 16-nt oligonucleotide, fluorescence)
Settings: 1.5 nM Tdp1, 50 nM oligonucleotide, 25 °C, three independent experiments
pIC50: −log10 of the molar value.

Compound	pIC50
Nc1nc2c(ncn2[C@@H]2O[C@H](CO)[C@@H](O)[C@H]2O)c(=O)[nH]1 [compound 1, reference compound]	< 4.30
OC[C@H]1O[C@@H](n2cnc3c(NCc4ccc(-c5ccccc5)cc4)ncnc32)[C@H](O)[C@@H]1O	< 4.30
Nc1nc2c(ncn2[C@H]2C[C@H](O)[C@@H](CO)O2)c(=O)[nH]1 [compound 2, reference compound]	< 4.30
OC[C@H]1O[C@@H](n2cnc3c(NCc4cc5ccc6cccc7ccc(c4)c5c67)ncnc32)[C@H](O)[C@@H]1O	< 4.30
OC[C@H]1O[C@@H](n2cnc3c(NC(c4ccccc4)(c4ccccc4)c4ccccc4)ncnc32)[C@H](O)[C@@H]1O	< 4.30
Nc1ncnc2c1ncn2[C@H]1C[C@H](O)[C@@H](CO)O1 [compound 4, reference compound]	< 4.30
Nc1ncnc2c1ncn2[C@@H]1O[C@H](CO)[C@@H](O)[C@H]1O [compound 3, reference compound]	< 4.30
